assay: Half life in mouse at 3 mg/kg, iv administered as bolus dose; type: ADME, organism-based; design: dose 3 mg/kg, route intravenous; details: in vivo

{"Given Smiles": "NS(=O)(=O)NCc1csc2ccccc12", "half-life, h": 1.5}

---

assay: Volume of distribution at steady state in mouse at 30 mg/kg, po and 3 mg/kg, iv administered as bolus dose; format: ADME, organism-based; conditions: in vivo, read-out: Vdss

{"Given Smiles": "NS(=O)(=O)NCc1csc2ccccc12", "Vd [L/kg]": 2.9}

---

test: Cmax in mouse at 30 mg/kg, po administered as bolus dose; assay type: ADME, organism-based; design: dose 30 mg/kg, route oral; conditions: in vivo
Measured Parameter: Cmax

{"Given Smiles": "NS(=O)(=O)NCc1csc2ccccc12", "Measured Parameter": "Cmax", "Observed Measurement": "3900 ng/mL"}

---

experiment: Metabolic stability in mouse liver microsomes assessed as compound remaining at 2 uM after 10 mins; type: ADME, Microsome; details: read-out: Stability
Measured Parameter: remaining at 10 min, 2 µM (%)

{"Given Smiles": "NS(=O)(=O)NCc1csc2ccccc12", "Measured Parameter": "remaining at 10 min, 2 µM", "Observed Measurement": 83}

---

molecular target: Carbonic anhydrase 2 (Homo sapiens, UniProt P00918)
pIC50: −log10 of the molar value.

{"Compound": "CC(NS(N)(=O)=O)c1csc2ccccc12 (racemic)", "System Tested": "Carbonic anhydrase 2 (Homo sapiens, UniProt P00918)", "pIC50": 3.89}

---

assay: Ratio of drug level in brain to plasma in rat at 30 mg/kg, po up to 6 hrs; assay type: ADME, organism-based; design: dose 30 mg/kg, route oral; conditions: brain and plasma, read-out: BPR
Measured Parameter: Kp at 6 h

{"Given Smiles": "NS(=O)(=O)NCc1csc2ccccc12", "Observed Measurement": 2.5}

---

system: Mus musculus; experiment: Anticonvulsant activity against maximal electroshock-induced seizure in CD1 mouse at 300 mg/kg, po after 0.5 hrs; type: functional, organism-based; parameters: dose 300 mg/kg
The source made the active and inactive calls. No cut-off for these calls is given here.
Classes used: active, inactive

{"Given Smiles": "NS(=O)(=O)NCc1coc2ccccc12", "Label Class": "active"}
{"Given Smiles": "NS(=O)(=O)NCc1csc2ccc(Cl)cc12", "Label Class": "inactive"}
{"Given Smiles": "Cn1cc(CNS(N)(=O)=O)c2ccccc21", "Label Class": "active"}
{"Given Smiles": "NS(=O)(=O)NCc1ccccc1", "Label Class": "active"}
